experiment: Visual solubility of Form 1 in common solvents; assay type: physicochemical; conditions: water, thermodynamic from solid, Water (H2O)
measurement.label: Solubility

- CCc1nc2ccccn2c1C(=O)c1cc(Br)c(O)c(C#N)c1 [Form 1]: < 1000 µg/mL

###

Test: Visual solubility of Form 1 in common solvents
Format: physicochemical
Settings: acetone:water 3:1, organic solvent or mixture, thermodynamic from solid, Acetone:water = 3:1
Description: Solubility of Form 1 was tested visually. About 5 mg of Form I was accurately weighed into a glass vial of 5 ml. Small amounts of solvent was added gradually into the vial until the compound was dissolved or when the total amount added reached 5 ml. The cumulative volume of the solvent was recorded.
measurement.label: Solubility

• CCc1nc2ccccn2c1C(=O)c1cc(Br)c(O)c(C#N)c1 [Form 1] = < 1000 µg/mL

###

experiment: Solubility in water, buffers and bio-relevant media (37° C., 24 h shaking, HPLC); type: physicochemical; conditions: 0.1N HCl, 37° C., 24 h
Labelling: Solubility reported below 5 µg/mL becomes 1 (yes); at or above becomes 0 (no).

- CCc1nc2ccccn2c1C(=O)c1cc(Br)c(O)c(C#N)c1 [Form 2]: 1 (yes)
- CCc1nc2ccccn2c1C(=O)c1cc(Br)c(O)c(C#N)c1 [Form 8]: 0 (no)
- CCc1nc2ccccn2c1C(=O)c1cc(Br)c(O)c(C#N)c1 [Form 11]: 0 (no)
- CCc1nc2ccccn2c1C(=O)c1cc(Br)c(O)c(C#N)c1 [Form 6]: 1 (yes)
- CCc1nc2ccccn2c1C(=O)c1cc(Br)c(O)c(C#N)c1 [Form 5D]: 0 (no)

###

assay: Single-dose pharmacokinetic study, oral and intravenous, in SD rats; assay type: in vivo, SD rat; conditions: male, SD, rat, plasma, po, 10 mg/kg, male SD rats, oral 10 mg/kg, individual rats 301/302/303 (c1/c2/c3); read-out: HL_Lambda_z (T1/2) (converted)
measurement.label: half-life (h)

- CCc1nc2ccccn2c1C(=O)c1cc(Br)c(O)c(C#N)c1 [Form 2]: 3.32

###

assay: Solubility in water, buffers and bio-relevant media (37° C., 24 h shaking, HPLC); assay type: physicochemical; settings: FeSSIF, 37° C., 24 h
Labelling: Solubility reported below 3 µg/mL becomes yes (1); at or above becomes no (0).

* CCc1nc2ccccn2c1C(=O)c1cc(Br)c(O)c(C#N)c1 [Form 1] | yes (1)
* CCc1nc2ccccn2c1C(=O)c1cc(Br)c(O)c(C#N)c1 [Form 5D] | no (0)
* CCc1nc2ccccn2c1C(=O)c1cc(Br)c(O)c(C#N)c1 [Form 2] | yes (1)
* CCc1nc2ccccn2c1C(=O)c1cc(Br)c(O)c(C#N)c1 [Form 11] | no (0)
* CCc1nc2ccccn2c1C(=O)c1cc(Br)c(O)c(C#N)c1 [Form 8] | no (0)
* CCc1nc2ccccn2c1C(=O)c1cc(Br)c(O)c(C#N)c1 [Form 6] | no (0)

###

experiment: Single-dose pharmacokinetic study, oral and intravenous, in SD rats; format: in vivo, SD rat; details: male, SD, rat, plasma, iv, 5 mg/kg, male SD rats, 5 mg/kg (intravenous), Average
measurement.label: AUC(0-t) (ng·h/mL)

* CCc1nc2ccccn2c1C(=O)c1cc(Br)c(O)c(C#N)c1 [Form 1] | 80200

###

experiment: Single-dose pharmacokinetic study, oral and intravenous, in SD rats; assay type: in vivo, SD rat; settings: male, SD, rat, plasma, iv, 5 mg/kg, male SD rats, 5 mg/kg (intravenous), individual rats 101/102/103 (c1/c2/c3)
measurement.label: AUC(0-t) (ng·h/mL)

• CCc1nc2ccccn2c1C(=O)c1cc(Br)c(O)c(C#N)c1 [Form 1] = 90800

###

Assay: Single-dose pharmacokinetic study, oral and intravenous, in SD rats
Format: in vivo, SD rat
Settings: male, SD, rat, plasma, po, 10 mg/kg, male SD rats, oral 10 mg/kg, individual rats 401/402/403 (c1/c2/c3)
Experimental: Form 1, Form 2, and Form 5D were each evaluated via a single-dose pharmacokinetic study following oral and intravenous administration in SD rats. […] Form 1, Form 2, and Form 5Dwere evaluated by rat pharmacokinetics study. […] The computer program Microsoft Office Excel 2007 (Microsoft, USA) was used to process data and graphics. The pharmacokinetic parameters were calculated by WinNolin 6.4 software.
measurement.label: Cmax (ng/mL)

* CCc1nc2ccccn2c1C(=O)c1cc(Br)c(O)c(C#N)c1 [Form 5D] | 8540

###

assay: Single-dose pharmacokinetic study, oral and intravenous, in SD rats; assay type: in vivo, SD rat; conditions: male, SD, rat, plasma, po, 10 mg/kg, male SD rats, oral 10 mg/kg, Average (Table 9)
measurement.label: MRT last (h)

• CCc1nc2ccccn2c1C(=O)c1cc(Br)c(O)c(C#N)c1 [Form 1] = 6.51

###

experiment: Single-dose pharmacokinetic study, oral and intravenous, in SD rats; assay type: in vivo, SD rat; settings: male, SD, rat, plasma, iv, 5 mg/kg, male SD rats, 5 mg/kg (intravenous), Average; read-out: AUCINF—pred
measurement.label: AUC(0-inf) (ng·h/mL)

• CCc1nc2ccccn2c1C(=O)c1cc(Br)c(O)c(C#N)c1 [Form 1] = 80500

###

experiment: Single-dose pharmacokinetic study, oral and intravenous, in SD rats; format: in vivo, SD rat; conditions: male, SD, rat, plasma, iv, 5 mg/kg, male SD rats, 5 mg/kg (intravenous), individual rats 101/102/103 (c1/c2/c3); read-out: Vz—pred
measurement.label: Vd (L/kg)

* CCc1nc2ccccn2c1C(=O)c1cc(Br)c(O)c(C#N)c1 [Form 1] | 0.25

###

test: Single-dose pharmacokinetic study, oral and intravenous, in SD rats; format: in vivo, SD rat; details: male, SD, rat, plasma, iv, 1 mg/kg, male SD rats, intravenous 1 mg/kg, individual rats 501/502/503 (c1/c2/c3)
measurement.label: Cmax

• CCc1nc2ccccn2c1C(=O)c1cc(Br)c(O)c(C#N)c1 [Form 1] = 7.12 µg/mL

###

Assay: Single-dose pharmacokinetic study, oral and intravenous, in SD rats
Assay type: in vivo, SD rat
Conditions: male, SD, rat, plasma, po, 10 mg/kg, male SD rats, oral 10 mg/kg, individual rats 401/402/403 (c1/c2/c3)
Description: Form 1, Form 2, and Form 5D were each evaluated via a single-dose pharmacokinetic study following oral and intravenous administration in SD rats. […] Form 1, Form 2, and Form 5Dwere evaluated by rat pharmacokinetics study. […] The computer program Microsoft Office Excel 2007 (Microsoft, USA) was used to process data and graphics. The pharmacokinetic parameters were calculated by WinNolin 6.4 software.
measurement.label: Tmax (h)

* CCc1nc2ccccn2c1C(=O)c1cc(Br)c(O)c(C#N)c1 [Form 5D] | 4

###

Assay: Single-dose pharmacokinetic study, oral and intravenous, in SD rats
Type: in vivo, SD rat
Settings: male, SD, rat, plasma, po, 10 mg/kg, male SD rats, oral 10 mg/kg, individual rats 301/302/303 (c1/c2/c3)
Procedure: Form 1, Form 2, and Form 5D were each evaluated via a single-dose pharmacokinetic study following oral and intravenous administration in SD rats. […] Form 1, Form 2, and Form 5Dwere evaluated by rat pharmacokinetics study. […] The computer program Microsoft Office Excel 2007 (Microsoft, USA) was used to process data and graphics. The pharmacokinetic parameters were calculated by WinNolin 6.4 software.
measurement.label: AUC(0-t) (µg·h/mL)

• CCc1nc2ccccn2c1C(=O)c1cc(Br)c(O)c(C#N)c1 [Form 2] = 108

###

test: Single-dose pharmacokinetic study, oral and intravenous, in SD rats; type: in vivo, SD rat; conditions: male, SD, rat, plasma, iv, 5 mg/kg, male SD rats, 5 mg/kg (intravenous), Average; read-out: HL_Lambda_z (T1/2) (converted)
measurement.label: half-life (h)

* CCc1nc2ccccn2c1C(=O)c1cc(Br)c(O)c(C#N)c1 [Form 1] | 3.08

###

Test: Single-dose pharmacokinetic study, oral and intravenous, in SD rats
Type: in vivo, SD rat
Conditions: male, SD, rat, plasma, po, 10 mg/kg, male SD rats, oral 10 mg/kg, Average (Table 10)
Description: Form 1, Form 2, and Form 5D were each evaluated via a single-dose pharmacokinetic study following oral and intravenous administration in SD rats. […] Form 1, Form 2, and Form 5Dwere evaluated by rat pharmacokinetics study. […] The computer program Microsoft Office Excel 2007 (Microsoft, USA) was used to process data and graphics. The pharmacokinetic parameters were calculated by WinNolin 6.4 software.
measurement.label: Tmax (h)

• CCc1nc2ccccn2c1C(=O)c1cc(Br)c(O)c(C#N)c1 [Form 2] = 4

###

assay: Single-dose pharmacokinetic study, oral and intravenous, in SD rats; assay type: in vivo, SD rat; settings: male, SD, rat, plasma, iv, 1 mg/kg, male SD rats, intravenous 1 mg/kg, Average
measurement.label: AUC(0-t) (µg·h/mL)

* CCc1nc2ccccn2c1C(=O)c1cc(Br)c(O)c(C#N)c1 [Form 1] | 17.4
